protein stability index for assorted variants
B1: RSPH3 (parent)
chain: MTVKPAKAASLARNLAKRRRTYLG

# Variants of: B1
# EXPERIMENTAL_DETAILS: protein stability index of a GFP-peptide fusion (GPS, HEK-293T) (PSI 1-6); higher = more stable;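 further: lentivirally expressed fusions sorted by FACS into six bins by GFP to DsRed ratio, PSI derived from sequencing read proportions per bin multiplied by bin number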
# SETTINGS: c terminus: a fixed tail appended
# print the numeric value only

q: Please look up its protein stability index: MTVKPAKAASLARNLAKRRRLYLG [T21L]
a: 2.98

q: And what about the variant PTVKPAKAASLARNLAKRRRTYLG [M1P] ?
a: 3

q: And what about the variant MTVKPAKAASLARNLATRRRTYLG [K17T] ?
a: 3

q: And what about the variant MTVKPAKAASLARNLAPRRRTYLG [K17P] ?
a: 3.02

q: And what about the variant MTVKPTKAASLARNLAKRRRTYLG [A6T] ?
a: 2.99
